target_or_system: human PDE2A1 (Homo sapiens)
Construct: GST; purchased BPS Bioscience (San Diego, Calif.) 60020; host or cells: insect cells
protocol_details: IMAP FP PDE assay, human PDE2A1
Type: biochemical
stated_conditions: Lab B; read-out: Human PDE2 Ki (nM) Lab B
For each record, write down the corresponding Ki.

Study these solved cases before continuing.
> print(dat)
                                   compound  test.readout  measurement
1  COCC(c1ccc(C(F)(F)F)cc1)n1nc(CO)c2c(=O)[nH]c(C)nc21 (single isomer, unassigned) [Example 100]            Ki     ~1670 nM
2  Cc1nc2c(c(CO)nn2C(C)c2ccc(C(F)(F)F)nn2)c(=O)[nH]1 (single isomer, unassigned) [Example 145]            Ki    > 2960 nM
3  Cc1nc2c(c(CO)nn2C(C)c2ccc(C(F)(F)F)c(I)c2)c(=O)[nH]1 (single isomer, unassigned) [Example 138]            Ki    > 2960 nM

Turning now to a further record.
Query: Consider the compound CC(=O)NCc1nn(C(C)c2ccc(C(F)(F)F)cc2)c2nc(C)[nH]c(=O)c12 (single isomer, unassigned) [Example 277] . State its measured Ki.
Reply: ~1300 nM

----------
target_or_system: Rhesus PDE2A3 (Macaca mulatta)
Construct: made in house; host or cells: AD293 cells, transient transfection; supernatant of sonicated lysate
Sequence (B3VTJ2 1-941): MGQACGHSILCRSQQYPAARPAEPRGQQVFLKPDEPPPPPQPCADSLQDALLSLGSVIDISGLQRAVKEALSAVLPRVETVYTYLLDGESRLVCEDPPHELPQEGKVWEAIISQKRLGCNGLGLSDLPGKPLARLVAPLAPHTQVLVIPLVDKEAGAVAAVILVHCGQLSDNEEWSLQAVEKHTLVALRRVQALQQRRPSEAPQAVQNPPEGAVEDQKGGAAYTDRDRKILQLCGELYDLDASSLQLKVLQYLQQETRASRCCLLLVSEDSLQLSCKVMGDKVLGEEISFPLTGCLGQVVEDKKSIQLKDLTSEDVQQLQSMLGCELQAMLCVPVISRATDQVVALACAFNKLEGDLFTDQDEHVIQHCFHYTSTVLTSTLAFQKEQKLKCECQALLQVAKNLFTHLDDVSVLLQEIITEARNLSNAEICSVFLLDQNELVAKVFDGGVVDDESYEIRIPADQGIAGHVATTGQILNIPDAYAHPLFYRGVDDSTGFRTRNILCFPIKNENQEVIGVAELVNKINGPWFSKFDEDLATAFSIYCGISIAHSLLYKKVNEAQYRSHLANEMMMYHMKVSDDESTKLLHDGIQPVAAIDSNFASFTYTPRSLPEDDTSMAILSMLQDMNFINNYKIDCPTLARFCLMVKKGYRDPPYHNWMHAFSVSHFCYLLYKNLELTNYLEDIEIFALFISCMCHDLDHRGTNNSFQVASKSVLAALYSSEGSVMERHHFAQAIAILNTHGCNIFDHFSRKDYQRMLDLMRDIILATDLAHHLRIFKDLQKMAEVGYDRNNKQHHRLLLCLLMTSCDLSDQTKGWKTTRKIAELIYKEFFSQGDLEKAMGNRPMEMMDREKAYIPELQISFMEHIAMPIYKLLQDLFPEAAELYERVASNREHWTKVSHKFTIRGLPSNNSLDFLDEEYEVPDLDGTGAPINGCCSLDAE
protocol_details: PDE2 fluorescence polarization (IMAP FP) inhibition assay, rhesus PDE2A3
Format: biochemical, rhesus macaque
stated_conditions: Lab B; read-out: Rhesus PDE2 Ki (nM) Lab B
test_readout: Ki

> print(dat)
                                   compound  measurement
1  Cc1nc2c(c(CCN)nn2C(C)c2ccc(C(F)(F)F)cc2)c(=O)[nH]1 (stereo not drawn) [Example 282]    > 2970 nM
2  COc1ccc(Cc2nc3c(c(C(F)F)nn3C(C)c3ccc(C(F)(F)F)cc3)c(=O)[nH]2)cc1OC (single isomer, unassigned) [Example 197]     ~0.15 nM

Query: Consider the compound CC(c1ccc(C(F)(F)F)cc1)n1nc(CO)c2c(=O)[nH]c(-c3ccco3)nc21 (racemic) [Example 294] . State its measured Ki.
Reply: ~2590 nM

----------
For each record, write down the corresponding Ki.
target_or_system: human PDE2A1 (Homo sapiens, UniProt O00408)
Construct: GST; purchased BPS Bioscience (San Diego, Calif.) 60020; host or cells: insect cells
Sequence (O00408 1-920 isoform O00408-2): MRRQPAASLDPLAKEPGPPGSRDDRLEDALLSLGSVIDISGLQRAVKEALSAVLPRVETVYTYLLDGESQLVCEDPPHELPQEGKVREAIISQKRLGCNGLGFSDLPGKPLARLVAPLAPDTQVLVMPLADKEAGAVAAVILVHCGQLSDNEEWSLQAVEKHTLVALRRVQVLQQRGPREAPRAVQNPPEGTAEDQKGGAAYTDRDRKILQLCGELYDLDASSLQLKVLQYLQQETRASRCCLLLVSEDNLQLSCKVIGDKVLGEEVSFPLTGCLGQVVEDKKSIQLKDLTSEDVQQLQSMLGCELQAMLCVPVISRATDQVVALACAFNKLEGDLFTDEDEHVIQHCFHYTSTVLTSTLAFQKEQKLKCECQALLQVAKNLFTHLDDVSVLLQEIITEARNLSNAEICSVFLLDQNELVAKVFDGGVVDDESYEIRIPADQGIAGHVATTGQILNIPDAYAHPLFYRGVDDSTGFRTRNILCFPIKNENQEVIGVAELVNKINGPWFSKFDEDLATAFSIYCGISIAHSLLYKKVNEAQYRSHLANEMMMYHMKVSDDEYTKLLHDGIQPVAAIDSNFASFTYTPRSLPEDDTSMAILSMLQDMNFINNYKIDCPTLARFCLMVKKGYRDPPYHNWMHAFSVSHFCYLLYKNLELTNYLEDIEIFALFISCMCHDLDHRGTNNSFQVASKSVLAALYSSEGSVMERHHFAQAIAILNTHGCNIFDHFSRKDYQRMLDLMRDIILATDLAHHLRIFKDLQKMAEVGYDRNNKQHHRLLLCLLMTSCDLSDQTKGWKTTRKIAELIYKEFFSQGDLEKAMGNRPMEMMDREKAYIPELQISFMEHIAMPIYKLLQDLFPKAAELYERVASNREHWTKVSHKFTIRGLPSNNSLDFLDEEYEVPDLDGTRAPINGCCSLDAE
protocol_details: IMAP FP PDE assay, human PDE2A1
Type: biochemical
stated_conditions: Lab B; read-out: Human PDE2 Ki (nM) Lab B
Numbers only, in nM.

> print(dat)
                                   compound  unit.of.measurement  measurement
1  Cc1nc2c(c(CO)nn2C(C)c2ccc(C(F)(F)F)cc2C)c(=O)[nH]1 (single isomer, unassigned) [Example 109]                   nM          1.9
2  CCCc1nc2c(c(CO)nn2C(C)c2ccc(C(F)(F)F)cc2)c(=O)[nH]1 (single isomer, unassigned) [Example 304]                   nM          263
3  CC(c1ccc(C(F)(F)F)cc1)n1nc(CO)c2c(=O)[nH]c(C3CCCO3)nc21 (single isomer, unassigned) [Example 313]                   nM           22

Query: Consider the compound Cc1nc2c(c(C(N)=O)nn2C(C)c2ccc(C(F)(F)F)cc2)c(=O)[nH]1 (single isomer, unassigned) [Example 256] . State its measured Ki.
Reply: 86
